test system: DU-145; test: Growth inhibition of human DU145 cells assessed as cell growth at 10^-4 M by sulforhodamine B assay; format: functional; details: read-out: Activity
// NB: equality with -50% counts as Criterion not met; only growth at 100 µM strictly below is Criterion met

Example entries and their recorded answers appear below.
CC1(C)C[C@@H](O)[C@]2(C(=O)O)CC[C@]3(C)C(=CC[C@@H]4[C@@]5(C)C/C(=C\C=C\c6ccccc6)C(=O)C(C)(C)[C@@H]5CC[C@]43C)[C@@H]2C1 = Criterion met
C/C=C(/C)C(=O)O[C@@H]1CC(C)(C)C[C@H]2C3=CC[C@@H]4[C@@]5(C)CC[C@H](O)C(C)(C)[C@@H]5CC[C@@]4(C)[C@]3(C)CC[C@@]12C(=O)O = Criterion not met
C/C=C(/C)C(=O)O[C@@H]1CC(C)(C)C[C@H]2C3=CC[C@@H]4[C@@]5(C)CCC(=O)C(C)(C)[C@@H]5CC[C@@]4(C)[C@]3(C)CC[C@@]12C(=O)O = Criterion not met

// next entry
hey, is growth at 100 µM for `CC(C)=CC(=O)O[C@@H]1CC(C)(C)C[C@H]2C3=CC[C@@H]4[C@@]5(C)CC[C@H](O)C(C)(C)[C@@H]5CC[C@@]4(C)[C@]3(C)CC[C@@]12C(=O)O` lower than -50% or not?
Criterion met

----------
Item-by-item account of growth at 10 µM
system: SF-268; test: Growth inhibition of human SF268 cells assessed as cell growth at 10 uM by sulforhodamine B assay; type: functional; details: read-out: Activity
Output spec: scalar in %, unitless text.

These solved cases illustrate the format of a correct answer.
CC1(C)C[C@@H](O)[C@]2(C(=O)O)CC[C@]3(C)C(=CC[C@@H]4[C@@]5(C)CCC(=O)C(C)(C)[C@@H]5CC[C@]43C)[C@@H]2C1 = 106
CC(C)=CC(=O)O[C@@H]1CC(C)(C)C[C@H]2C3=CC[C@@H]4[C@@]5(C)CCC(=O)C(C)(C)[C@@H]5CC[C@@]4(C)[C@]3(C)CC[C@@]12C(=O)O = 73
CC(C)=CC(=O)O[C@@H]1CC(C)(C)C[C@H]2C3=CC[C@@H]4[C@@]5(C)CC[C@H](O)C(C)(C)[C@@H]5CC[C@@]4(C)[C@]3(C)CC[C@@]12C(=O)O = 92.2
C/C=C(/C)C(=O)O[C@@H]1CC(C)(C)C[C@H]2C3=CC[C@@H]4[C@@]5(C)CCC(=O)C(C)(C)[C@@H]5CC[C@@]4(C)[C@]3(C)CC[C@@]12C(=O)O = 74.1
COc1cc(/C=C2\C[C@]3(C)[C@H]4CC=C5[C@@H]6CC(C)(C)C[C@@H](O)[C@]6(C(=O)O)CC[C@@]5(C)[C@]4(C)CC[C@H]3C(C)(C)C2=O)ccc1O = 109

Provide growth at 10 µM, tested on SF-268, for `CC1(C)C[C@@H](O)[C@]2(C(=O)O)CC[C@]3(C)C(=CC[C@@H]4[C@@]5(C)C/C(=C\C=C\c6ccccc6)C(=O)C(C)(C)[C@@H]5CC[C@]43C)[C@@H]2C1` .
70.7

Provide growth at 10 µM, tested on SF-268, for `CC1(C)C[C@@H](O)[C@]2(C(=O)O)CC[C@]3(C)C(=CC[C@@H]4[C@@]5(C)CC[C@H](O)C(C)(C)[C@@H]5CC[C@]43C)[C@@H]2C1` .
102

Provide growth at 10 µM, tested on SF-268, for `C/C=C(/C)C(=O)O[C@@H]1CC(C)(C)C[C@H]2C3=CC[C@@H]4[C@@]5(C)CC[C@H](O)C(C)(C)[C@@H]5CC[C@@]4(C)[C@]3(C)CC[C@@]12C(=O)O` .
25.9
